Hello, the source for this data is ChEMBL document CHEMBL1909046, in case you need it.

target: Sigma non-opioid intracellular receptor 1 (Homo sapiens, UniProt Q99720); test: DRUGMATRIX: Sigma1 radioligand binding (ligand: [3H] Haloperidol); assay type: cell membranes, Jurkat, Membrane; details: Not Active = under 50% inhibition at 10 µM; read-out: IC50
Sequence (Q99720 whole entry): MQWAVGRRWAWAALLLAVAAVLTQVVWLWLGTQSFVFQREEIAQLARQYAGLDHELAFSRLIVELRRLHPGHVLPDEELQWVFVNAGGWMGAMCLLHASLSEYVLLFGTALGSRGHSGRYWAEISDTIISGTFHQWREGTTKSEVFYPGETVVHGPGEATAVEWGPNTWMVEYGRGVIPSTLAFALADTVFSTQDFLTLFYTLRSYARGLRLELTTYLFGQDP
IC50 strictly less than 500 nM = 1. Otherwise -1.

Exam item: Item CC(CCc1ccc(O)cc1)NCCc1ccc(O)c(O)c1 (stereo not given) : IC50 beneath 500 nM, strictly?
Marked response: -1

* * *

Target: Vasoactive intestinal polypeptide receptor 1 (Homo sapiens, UniProt P32241); also: in other assays of this panel Not Active means under 50% inhibition at 10 µM
Sequence (P32241 whole entry): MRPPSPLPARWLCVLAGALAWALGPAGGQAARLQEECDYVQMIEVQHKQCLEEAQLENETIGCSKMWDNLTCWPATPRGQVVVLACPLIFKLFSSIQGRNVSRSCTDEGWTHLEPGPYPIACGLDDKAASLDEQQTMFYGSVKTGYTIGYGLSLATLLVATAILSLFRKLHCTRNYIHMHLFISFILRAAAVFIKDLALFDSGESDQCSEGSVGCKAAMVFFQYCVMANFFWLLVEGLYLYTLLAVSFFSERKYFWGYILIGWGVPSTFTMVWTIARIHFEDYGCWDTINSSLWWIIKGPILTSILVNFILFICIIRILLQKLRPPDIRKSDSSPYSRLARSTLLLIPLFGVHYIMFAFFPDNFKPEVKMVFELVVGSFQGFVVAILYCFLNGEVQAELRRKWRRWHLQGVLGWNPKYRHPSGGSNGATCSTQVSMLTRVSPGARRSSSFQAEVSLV
Assay type: cell membranes, Membrane
Settings: ht-29
experimental_readout: IC50

Exam item: Requested field: IC50. Item: POLYVINYL ALCOHOL
Marked response: Not Active

Exam item: IC50 for INSULIN HUMAN ?
Marked response: Not Active

Exam item: Quick one: IC50 for STANNOUS FLUORIDE ?
Marked response: Not Active

Exam item: Given the entry THIMEROSAL , report its measured IC50.
Marked response: Not Active

Now examine the next entry.
Exam item: Form field: reported IC50 of COBALT(II) ACETYLACETONATE
Marked response: Not Active

* * *

biological target: Angiotensin-converting enzyme (Oryctolagus cuniculus, UniProt P12822); format: tissue-based, Lung;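 also: enzymatic inhibition of angiotensin-converting enzyme measured with FAPGG as the substrate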; also: in other assays of this panel Not Active means under 50% inhibition at 10 µM
Sequence (P12822 whole entry): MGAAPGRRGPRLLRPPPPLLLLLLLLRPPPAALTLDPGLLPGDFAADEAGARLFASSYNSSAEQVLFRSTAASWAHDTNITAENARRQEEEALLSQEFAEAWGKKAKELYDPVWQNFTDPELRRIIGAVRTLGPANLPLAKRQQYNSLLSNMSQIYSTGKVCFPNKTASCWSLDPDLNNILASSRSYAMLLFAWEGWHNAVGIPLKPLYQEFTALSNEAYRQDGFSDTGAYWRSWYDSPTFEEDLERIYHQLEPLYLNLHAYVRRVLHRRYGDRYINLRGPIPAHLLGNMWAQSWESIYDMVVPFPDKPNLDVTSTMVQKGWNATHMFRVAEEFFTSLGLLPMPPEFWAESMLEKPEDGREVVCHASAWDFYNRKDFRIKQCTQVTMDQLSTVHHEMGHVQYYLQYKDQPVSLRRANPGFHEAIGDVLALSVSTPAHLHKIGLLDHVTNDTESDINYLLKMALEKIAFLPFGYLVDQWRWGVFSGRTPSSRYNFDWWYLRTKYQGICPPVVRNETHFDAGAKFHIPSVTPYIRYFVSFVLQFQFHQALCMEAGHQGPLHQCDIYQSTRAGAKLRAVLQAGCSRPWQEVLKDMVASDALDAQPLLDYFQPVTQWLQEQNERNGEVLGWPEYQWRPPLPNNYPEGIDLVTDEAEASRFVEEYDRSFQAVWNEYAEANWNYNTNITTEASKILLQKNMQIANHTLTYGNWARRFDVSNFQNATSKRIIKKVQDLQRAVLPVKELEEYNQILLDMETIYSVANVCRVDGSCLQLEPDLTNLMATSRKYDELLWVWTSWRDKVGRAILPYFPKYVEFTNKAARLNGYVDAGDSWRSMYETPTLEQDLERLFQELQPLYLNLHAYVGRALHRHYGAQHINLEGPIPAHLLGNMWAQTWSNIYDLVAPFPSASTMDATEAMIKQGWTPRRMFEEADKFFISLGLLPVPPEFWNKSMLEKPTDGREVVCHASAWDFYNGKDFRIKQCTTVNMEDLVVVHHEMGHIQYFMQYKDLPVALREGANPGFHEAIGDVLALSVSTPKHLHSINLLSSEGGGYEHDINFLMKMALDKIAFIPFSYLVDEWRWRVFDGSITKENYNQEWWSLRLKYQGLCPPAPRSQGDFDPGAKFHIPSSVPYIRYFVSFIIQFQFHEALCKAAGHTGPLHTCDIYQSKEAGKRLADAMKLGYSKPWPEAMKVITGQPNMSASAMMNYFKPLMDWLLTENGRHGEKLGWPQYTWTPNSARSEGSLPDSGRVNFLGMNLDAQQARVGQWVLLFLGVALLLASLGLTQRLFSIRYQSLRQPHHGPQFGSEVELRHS
experimental_readout: IC50

Examples from the recorded data:
Exam item: Sample C[C@H]([C@](O)(Cn1cncn1)c1ccc(F)cc1F)S(C)(=O)=O [GENACONAZOLE] — what was its IC50?
Marked response: Not Active

Exam item: GET /values?readout=IC50&item= CC(=O)O[C@]1(C(C)=O)CC[C@H]2[C@@H]3C=C(C)C4=CC(=O)CC[C@]4(C)[C@H]3CC[C@@]21C [MEGESTROL ACETATE]
Marked response: Not Active

Exam item: Quick one: IC50 for COc1cc(C(=O)NS(=O)(=O)c2ccccc2C)ccc1Cc1cn(C)c2ccc(NC(=O)OC3CCCC3)cc12 [ZAFIRLUKAST] ?
Marked response: Not Active

Exam item: Any idea what IC50 was measured for O=P1(N(CCCl)CCCl)NCCCO1 (stereo not drawn) [CYCLOPHOSPHAMIDE ANHYDROUS] ?
Marked response: Not Active

Exam item: So what does the record say about IC50 for CN1C2CCCC1CC(NC(=O)c1nn(C)c3ccccc13)C2 (stereo not drawn) [GRANISETRON] ?
Marked response: Not Active

Exam item: Looking for the measured IC50 of CN(CCOc1ccc(CC2SC(=O)NC2=O)cc1)c1ccccn1 (stereo not drawn) [ROSIGLITAZONE] , can you help?
Marked response: Not Active

Exam item: What value of IC50 has been recorded for this entry: O=c1cc(-c2ccccc2)oc2ccc3ccccc3c12 [BETA-NAPHTHOFLAVONE]
Marked response: Not Active

Exam item: Quick one: IC50 for O=C(c1ccccc1Cl)N1CCC(Cc2ccccc2)CC1 ?
Marked response: Not Active

Items follow; give IC50 for each.
1. Clc1cc2c(cc1Cl)Oc1cc(Cl)c(Cl)cc1O2 [2,3,7,8-TETRACHLORODIBENZO-P-DIOXIN]
2. CN1C(=O)CN=C(c2ccccc2)c2cc(Cl)ccc21 [DIAZEPAM]
3. C[C@@H]1C[C@H]2[C@@H]3CCC4=CC(=O)C=C[C@]4(C)C3=CC[C@]2(C)[C@H]1C(=O)CN1CCN(c2cc(N3CCCC3)nc(N3CCCC3)n2)CC1 [TIRILAZAD]
4. CC1=C(CC(=O)O)c2cc(F)ccc2/C1=C\c1ccc(S(C)(=O)=O)cc1 [EXISULIND]
5. NC(=O)N1c2ccccc2C=Cc2ccccc21 [CARBAMAZEPINE]

Marked response:
["Not Active", "Not Active", "Not Active", "Not Active", "Not Active"]

* * *

biological target: Estrogen receptor beta (Homo sapiens, UniProt Q92731); settings: sf9; also: in other assays of this panel Not Active means under 50% inhibition at 10 µM
Sequence (Q92731 whole entry): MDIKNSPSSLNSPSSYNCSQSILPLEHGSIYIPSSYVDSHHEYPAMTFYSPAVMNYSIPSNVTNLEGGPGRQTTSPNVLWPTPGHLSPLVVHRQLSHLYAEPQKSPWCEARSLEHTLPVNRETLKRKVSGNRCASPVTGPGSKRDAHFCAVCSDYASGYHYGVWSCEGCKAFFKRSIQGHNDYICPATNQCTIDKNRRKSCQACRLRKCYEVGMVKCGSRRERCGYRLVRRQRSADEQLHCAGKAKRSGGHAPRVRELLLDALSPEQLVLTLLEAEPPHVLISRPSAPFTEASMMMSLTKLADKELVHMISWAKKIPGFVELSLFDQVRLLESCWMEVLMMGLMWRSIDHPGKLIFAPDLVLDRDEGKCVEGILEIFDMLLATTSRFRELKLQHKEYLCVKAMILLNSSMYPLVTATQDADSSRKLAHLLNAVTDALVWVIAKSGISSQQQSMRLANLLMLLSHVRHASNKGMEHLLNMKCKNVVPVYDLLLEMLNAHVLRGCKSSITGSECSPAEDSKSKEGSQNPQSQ
experimental_readout: IC50

Look over these answered cases.
Exam item: Query the reported IC50 for Estrogen receptor beta (Homo sapiens, UniProt Q92731); item: CC1=C(CC(=O)O)c2cc(F)ccc2/C1=C\c1ccc(S(C)(=O)=O)cc1 [EXISULIND]
Marked response: Not Active

Exam item: Value wanted: IC50 (Estrogen receptor beta (Homo sapiens, UniProt Q92731)) of entry O=c1cc(-c2ccccc2)oc2ccc3ccccc3c12 [BETA-NAPHTHOFLAVONE]
Marked response: Not Active

Exam item: State its IC50 on Estrogen receptor beta (Homo sapiens, UniProt Q92731): CC[C@@H](CO)NC(=O)[C@@H]1C=C2c3cccc4c3c(cn4C)C[C@H]2N(C)C1 [METHYSERGIDE]
Marked response: Not Active

Exam item: Field: IC50 (Estrogen receptor beta (Homo sapiens, UniProt Q92731)). Entry: NC(=O)N1c2ccccc2C=Cc2ccccc21 [CARBAMAZEPINE]
Marked response: Not Active

Exam item: Provide value of IC50 for this record tested with Estrogen receptor beta (Homo sapiens, UniProt Q92731): CC[C@H]1OC(=O)[C@H](C)[C@@H](O[C@H]2C[C@@](C)(OC)[C@@H](O)[C@H](C)O2)[C@H](C)[C@@H](O[C@@H]2O[C@H](C)C[C@H](N(C)C)[C@H]2O)[C@](C)(O)C[C@@H](C)CN(C)[C@H](C)[C@@H](O)[C@]1(C)O [AZITHROMYCIN]
Marked response: Not Active

Then there is this compound:
Exam item: Identify the measured IC50 of CO[C@H]1C[C@@H]2CC[C@@H](C)[C@@](O)(O2)C(=O)C(=O)N2CCCC[C@H]2C(=O)O[C@H]([C@H](C)C[C@@H]2CC[C@@H](O)[C@H](OC)C2)CC(=O)[C@H](C)/C=C(\C)[C@@H](O)[C@@H](OC)C(=O)[C@H](C)C[C@H](C)/C=C/C=C/C=C/1C [SIROLIMUS] for Estrogen receptor beta (Homo sapiens, UniProt Q92731).
Marked response: Not Active

* * *

target: UniProtKB P41968; format: cell membranes, Membrane; settings: hek293
Sequence (P41968 whole entry): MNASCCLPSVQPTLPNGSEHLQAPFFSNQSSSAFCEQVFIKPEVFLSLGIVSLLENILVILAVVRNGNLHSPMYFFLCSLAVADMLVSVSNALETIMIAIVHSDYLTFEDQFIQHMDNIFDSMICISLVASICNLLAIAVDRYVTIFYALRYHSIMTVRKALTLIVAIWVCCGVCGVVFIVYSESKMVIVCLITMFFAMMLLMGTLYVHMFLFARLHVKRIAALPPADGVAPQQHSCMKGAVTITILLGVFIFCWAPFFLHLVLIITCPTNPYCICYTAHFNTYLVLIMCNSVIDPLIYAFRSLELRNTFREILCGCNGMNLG
experimental_readout: IC50

Here are 8 compounds together with their reported answers.
Exam item: Value lookup for IC50; key = Nc1nc(N)nc(NC2CC2)n1 [CYROMAZINE]
Marked response: Not Active

Exam item: Need IC50 of COc1ccc(CN2CCNCC2)c(OC)c1OC [TRIMETAZIDINE] , thanks.
Marked response: Not Active

Exam item: Quick one: IC50 of CC(=O)OCC(CCn1cnc2cnc(N)nc21)COC(C)=O [FAMCICLOVIR] ?
Marked response: Not Active

Exam item: Entry under review: CO[C@H]1C[C@@H]2CC[C@@H](C)[C@@](O)(O2)C(=O)C(=O)N2CCCC[C@H]2C(=O)O[C@H]([C@H](C)C[C@@H]2CC[C@@H](O)[C@H](OC)C2)CC(=O)[C@H](C)/C=C(\C)[C@@H](O)[C@@H](OC)C(=O)[C@H](C)C[C@H](C)/C=C/C=C/C=C/1C [SIROLIMUS] . Reported IC50?
Marked response: Not Active

Exam item: What value of measured IC50 is listed for CCCCC1C(=O)N(c2ccccc2)N(c2ccccc2)C1=O [PHENYLBUTAZONE] ?
Marked response: Not Active

Exam item: For the compound shown here, OCCO [ETHYLENE GLYCOL] , give the reported IC50.
Marked response: Not Active

Exam item: Recorded IC50 for Nc1nc(Cl)nc2c1ncn2[C@H]1C[C@H](O)[C@@H](CO)O1 [CLADRIBINE] , please?
Marked response: Not Active

Exam item: Look up IC50 for this compound: COc1ccc2cc(CCC(C)=O)ccc2c1 [NABUMETONE]
Marked response: Not Active

Give IC50 for each listed item.
1. Cc1cccc(Nc2cc(Cl)nc(SCC(=O)O)n2)c1C [PIRINIXIC ACID]
2. COc1cc(C(=O)NS(=O)(=O)c2ccccc2C)ccc1Cc1cn(C)c2ccc(NC(=O)OC3CCCC3)cc12 [ZAFIRLUKAST]
3. Nc1ccc(S(=O)(=O)Nc2ncccn2)cc1 [SULFADIAZINE]

Marked response:
["Not Active", "Not Active", "Not Active"]

Provide IC50 values for the following items, in order.
1. C#C[C@]1(O)CC[C@H]2[C@@H]3CCC4=Cc5oncc5C[C@]4(C)[C@H]3CC[C@@]21C [DANAZOL]
2. Cc1cn[nH]c1 [FOMEPIZOLE]
3. Nn1nnc2ccccc21

Marked response:
Not Active
Not Active
Not Active

Respectfully, I request IC50 for each entry included below.
1. Nc1ccc(S(=O)(=O)Nc2nccs2)cc1 [SULFATHIAZOLE]
2. Cc1cccc(Nc2ccccc2C(=O)O)c1C [MEFENAMIC ACID]

Marked response:
1. Not Active
2. Not Active
